List of luminescent signals values.
# Tested on: U-2932
# Measurement protocol: Combined drug treatment cell viability (CellTiter-Glo), ibrutinib with BET inhibitors, U-2932
# Type: cell-based
# Condition set: U2932; ibrutinib 16 nM with I-BET151 200 nM, JQ1 20 nM, OTX015 50 nM (Table 2) or medium alone (row); 3 days
Just the number.

[[record]]
smiles = "C=CC(=O)N1CCC[C@@H](n2nc(-c3ccc(Oc4ccccc4)cc3)c3c(N)ncnc32)C1"
result_number = 51023.93


Request: Need luminescent signals, item `COc1cc2c(cc1-c1c(C)noc1C)ncc1[nH]c(=O)n([C@H](C)c3ccccn3)c12`
Result: 43980.61

Request: Now the compound `Cc1sc2c(c1C)C(c1ccc(Cl)cc1)=N[C@@H](CC(=O)Nc1ccc(O)cc1)c1nnc(C)n1-2`
Result: 49095.12

Request: Now the compound `Cc1sc2c(c1C)C(c1ccc(Cl)cc1)=N[C@@H](CC(=O)OC(C)(C)C)c1nnc(C)n1-2`
Result: 46417.97

Origin of values: patent US20160022684A1
